Recorded viability, T/C for the following molecules
- System: 958767-090-R-J1-PDC spheroid growth
- TEST_DESCRIPTION: Anticancer human tumor 958767-090-R-J1-PDC patient-derived head and neck squamous carcinoma cell line growth inhibition [IpAb]
- CONDITION_LABEL: second compound 0.316 µM; first compound 0.1 µM; active compounds read low; spheroids with HUVEC and MSC

{"columns": ["MOLECULE", "TARGET_UNDER_TEST", "RESULT_VALUE"],
 "data": [
  ["Cn1nccc1Nc1nccc(-c2ccn(C(CO)c3ccc(Cl)c(F)c3)c(=O)c2)n1 (stereo not drawn) + CCN1CCN(Cc2ccc(Nc3ncc(F)c(-c4cc(F)c5nc(C)n(C(C)C)c5c4)n3)nc2)CC1", "958767-090-R-J1-PDC spheroid growth", "50.5%"],
  ["C=CC(=O)N1CCN(c2nc(=O)n(-c3c(C)ccnc3C(C)C)c3nc(-c4c(O)cccc4F)c(F)cc23)C(C)C1 (stereo not drawn) + CCN1CCN(Cc2ccc(Nc3ncc(F)c(-c4cc(F)c5nc(C)n(C(C)C)c5c4)n3)nc2)CC1", "958767-090-R-J1-PDC spheroid growth", "55.1%"]
]}

Continue with the molecule presented below.
Recorded viability, T/C of COc1c(OCCCN2CCOCC2)ccc2c3n(c(=NC(=O)c4cnc(N)nc4)nc12)CCN3 + CCN1CCN(Cc2ccc(Nc3ncc(F)c(-c4cc(F)c5nc(C)n(C(C)C)c5c4)n3)nc2)CC1 , please.
19.4%

###

Recorded viability, T/C for the following molecules
- Tested on: 958767-090-R-J1-PDC spheroid growth
- TEST_DESCRIPTION: Anticancer human tumor 958767-090-R-J1-PDC cell line growth inhibition [IpAb];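 also: spheroids exposed to agents for 7 days; 100% = DMSO vehicle control wells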
- CONDITION_LABEL: second compound 0.316 µM; first compound 0.0316 µM; active compounds read low; spheroids with HUVEC and MSC

Observe how each entry below is paired with its result.
{"columns": ["MOLECULE", "TARGET_UNDER_TEST", "viability, T/C"],
 "data": [
  ["Cc1nc(NC(=O)N2CCCC2C(N)=O)sc1-c1ccnc(C(C)(C)C(F)(F)F)c1 (stereo not given) + CC(C)NCC(C(=O)N1CCN(c2ncnc3c2C(C)CC3O)CC1)c1ccc(Cl)cc1", "958767-090-R-J1-PDC spheroid growth", "54.4%"],
  ["Cn1nccc1Nc1nccc(-c2ccn(C(CO)c3ccc(Cl)c(F)c3)c(=O)c2)n1 (stereo not given) + CCN1CCN(Cc2ccc(Nc3ncc(F)c(-c4cc(F)c5nc(C)n(C(C)C)c5c4)n3)nc2)CC1", "958767-090-R-J1-PDC spheroid growth", "61.4%"]
]}

Recorded viability, T/C of CCCS(=O)(=O)Nc1ccc(F)c(C(=O)c2c[nH]c3ncc(-c4ccc(Cl)cc4)cc23)c1F + CC(C)NCC(C(=O)N1CCN(c2ncnc3c2C(C)CC3O)CC1)c1ccc(Cl)cc1 , please.
67.9%

Param item: COc1c(OCCCN2CCOCC2)ccc2c3n(c(=NC(=O)c4cnc(N)nc4)nc12)CCN3 + CC(C)NCC(C(=O)N1CCN(c2ncnc3c2C(C)CC3O)CC1)c1ccc(Cl)cc1
25.7%

Param item: CC1(C)CCC(CN2CCN(c3ccc(C(=O)NS(=O)(=O)c4ccc(NCC5CCOCC5)c([N+](=O)[O-])c4)c(Oc4cnc5[nH]ccc5c4)c3)CC2)=C(c2ccc(Cl)cc2)C1 + CC(C)NCC(C(=O)N1CCN(c2ncnc3c2C(C)CC3O)CC1)c1ccc(Cl)cc1
60.8%

###

Recorded viability, T/C for the following compounds
- System: 958767-090-R-J1-PDC spheroid growth
- TEST_DESCRIPTION: Anticancer human tumor 958767-090-R-J1-PDC cell line growth inhibition [IpAb];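 also: spheroids exposed to agents for 7 days; 100% = DMSO vehicle control wells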
- CONDITION_LABEL: second compound 0.316 µM; first compound 0.01 µM; active compounds read low; spheroids with HUVEC and MSC
- Description: Combinatorial screen of targeted agents with ipatasertib and abemaciclib in multi-cell type tumor spheroids […] Compounds. […] If the clinical Cmax for an agent had not been determined, the highest concentration tested was 10 microM. NCI60 Cell Culture. […] The optimal seeding densities for each of the cell lines at each time point assessed were determined prior to performing the concentration response studies. […]
Hi! Could you send only the number? It should be in %, unit omitted.

Observe how each entry below is paired with its result.
{"columns": ["COMPOUND", "TARGET_UNDER_TEST", "viability, T/C, %"],
 "data": [
  ["COc1c(OCCCN2CCOCC2)ccc2c3n(c(=NC(=O)c4cnc(N)nc4)nc12)CCN3 + CC(C)NCC(C(=O)N1CCN(c2ncnc3c2C(C)CC3O)CC1)c1ccc(Cl)cc1", "958767-090-R-J1-PDC spheroid growth", 43.2],
  ["Cn1ncnc1[C@H]1c2n[nH]c(=O)c3cc(F)cc(c23)N[C@@H]1c1ccc(F)cc1 + CCN1CCN(Cc2ccc(Nc3ncc(F)c(-c4cc(F)c5nc(C)n(C(C)C)c5c4)n3)nc2)CC1", "958767-090-R-J1-PDC spheroid growth", 54],
  ["CC(C)n1nc(-c2ccc3oc(N)nc3c2)c2c(N)ncnc21 + CCN1CCN(Cc2ccc(Nc3ncc(F)c(-c4cc(F)c5nc(C)n(C(C)C)c5c4)n3)nc2)CC1", "958767-090-R-J1-PDC spheroid growth", 54.1],
  ["CC(C)n1nc(-c2ccc3oc(N)nc3c2)c2c(N)ncnc21 + CC(C)NCC(C(=O)N1CCN(c2ncnc3c2C(C)CC3O)CC1)c1ccc(Cl)cc1", "958767-090-R-J1-PDC spheroid growth", 29.8],
  ["Cn1ncnc1[C@H]1c2n[nH]c(=O)c3cc(F)cc(c23)N[C@@H]1c1ccc(F)cc1 + CC(C)NCC(C(=O)N1CCN(c2ncnc3c2C(C)CC3O)CC1)c1ccc(Cl)cc1", "958767-090-R-J1-PDC spheroid growth", 86.8]
]}

Continue with the compound presented below.
Recorded viability, T/C of COc1c(OCCCN2CCOCC2)ccc2c3n(c(=NC(=O)c4cnc(N)nc4)nc12)CCN3 + CCN1CCN(Cc2ccc(Nc3ncc(F)c(-c4cc(F)c5nc(C)n(C(C)C)c5c4)n3)nc2)CC1 , please.
42.6

###

- Test system: 958767-090-R-J1-PDC spheroid growth
- TEST_DESCRIPTION: Anticancer human tumor 958767-090-R-J1-PDC cell line growth inhibition [IpAb];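 also: spheroids exposed to agents for 7 days; 100% = DMSO vehicle control wells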
- CONDITION_LABEL: second compound 1 µM; first compound 3.16 µM; active compounds read low; spheroids with HUVEC and MSC
Recorded viability, T/C for the following compounds
Hi! Could you send only the number? It should be in %, unit omitted.

{"columns": ["COMPOUND", "TARGET_UNDER_TEST", "viability, T/C / %"],
 "data": [
  ["C=CC(=O)N1CCN(c2nc(=O)n(-c3c(C)ccnc3C(C)C)c3nc(-c4c(O)cccc4F)c(F)cc23)C(C)C1 (centres undefined) + CCN1CCN(Cc2ccc(Nc3ncc(F)c(-c4cc(F)c5nc(C)n(C(C)C)c5c4)n3)nc2)CC1", "958767-090-R-J1-PDC spheroid growth", 87.7],
  ["CC1(C)CCC(CN2CCN(c3ccc(C(=O)NS(=O)(=O)c4ccc(NCC5CCOCC5)c([N+](=O)[O-])c4)c(Oc4cnc5[nH]ccc5c4)c3)CC2)=C(c2ccc(Cl)cc2)C1 + CC(C)NCC(C(=O)N1CCN(c2ncnc3c2C(C)CC3O)CC1)c1ccc(Cl)cc1", "958767-090-R-J1-PDC spheroid growth", 38.2],
  ["Cn1nccc1Nc1nccc(-c2ccn(C(CO)c3ccc(Cl)c(F)c3)c(=O)c2)n1 (centres undefined) + CCN1CCN(Cc2ccc(Nc3ncc(F)c(-c4cc(F)c5nc(C)n(C(C)C)c5c4)n3)nc2)CC1", "958767-090-R-J1-PDC spheroid growth", 38.8]
]}

Continue with the compound presented below.
Recorded viability, T/C of Cc1nc(NC(=O)N2CCCC2C(N)=O)sc1-c1ccnc(C(C)(C)C(F)(F)F)c1 (centres undefined) + CC(C)NCC(C(=O)N1CCN(c2ncnc3c2C(C)CC3O)CC1)c1ccc(Cl)cc1 , please.
15.6

###

- System: 958767-090-R-J1-PDC spheroid growth
- TEST_DESCRIPTION: Anticancer human tumor 958767-090-R-J1-PDC cell line growth inhibition [IpAb];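 also: spheroids exposed to agents for 7 days; 100% = DMSO vehicle control wells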
- CONDITION_LABEL: second compound 0.1 µM; first compound 0.001 µM; active compounds read low; spheroids with HUVEC and MSC
OUTCOME_MEASURE: viability, T/C (%)
Hi! Could you send only the number? It should be in %, unit omitted.

Observe how each entry below is paired with its result.
{"columns": ["MOLECULE", "RESULT_VALUE"],
 "data": [
  ["CC(C)n1nc(-c2ccc3oc(N)nc3c2)c2c(N)ncnc21 + CCN1CCN(Cc2ccc(Nc3ncc(F)c(-c4cc(F)c5nc(C)n(C(C)C)c5c4)n3)nc2)CC1", 73.1],
  ["Cn1ncnc1[C@H]1c2n[nH]c(=O)c3cc(F)cc(c23)N[C@@H]1c1ccc(F)cc1 + CC(C)NCC(C(=O)N1CCN(c2ncnc3c2C(C)CC3O)CC1)c1ccc(Cl)cc1", 87.8],
  ["Cn1ncnc1[C@H]1c2n[nH]c(=O)c3cc(F)cc(c23)N[C@@H]1c1ccc(F)cc1 + CCN1CCN(Cc2ccc(Nc3ncc(F)c(-c4cc(F)c5nc(C)n(C(C)C)c5c4)n3)nc2)CC1", 64.6]
]}

Continue with the molecule presented below.
Recorded viability, T/C of CC(C)n1nc(-c2ccc3oc(N)nc3c2)c2c(N)ncnc21 + CC(C)NCC(C(=O)N1CCN(c2ncnc3c2C(C)CC3O)CC1)c1ccc(Cl)cc1 , please.
72.8
